test: NCI Yeast Anticancer Drug Screen. Data for the mlh1 rad18 strain (AID 175)
experimental conditions: S. cerevisiae mlh1 rad18 strain growth inhibition; at 50.0 µM; hits give high values
About 79,000 compounds went through this panel and 15% of them were active in at least one assay; those are over-represented in the sample as a whole.
Reported growth inhibition by item:
Use % as the unit, but write only the number.

If you can, please state the reported growth inhibition value of "CCCCNC(=O)c1cccc(OC)c1OC" .
3.45

If you can, please state the reported growth inhibition value of "CNC(=O)c1cccc([N+](=O)[O-])c1" .
30.2

Continuing:
If you can, please state the reported growth inhibition value of "C[N+]1(C)N=C(c2ccccc2)C=C1[O-]" .
-3.85

----------
Reported growth inhibition by item:
test: NCI Yeast Anticancer Drug Screen. Data for the rad50 strain (AID 155);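 also: 0% = growth of vehicle-only cultures of the same strain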
experimental conditions: S. cerevisiae rad50 strain growth inhibition; at 50.0 µM; hits give high values
Compounds without any hit were thinned out: in the full panel of roughly 79,000, 15% have a hit.
Use % as the unit, but write only the number.

The cases that follow already have their growth inhibition on record.
If you can, please state the reported growth inhibition value of "Cc1ccc(-c2c(C#N)c(-c3ccc(Cl)cc3)c(C#N)c(=O)n2NS(=O)(=O)c2ccc(C)cc2)cc1" .
20.9

If you can, please state the reported growth inhibition value of "c1ccc([P+](Cc2ccc(C[P+](c3ccccc3)(c3ccccc3)c3ccccc3)cc2)(c2ccccc2)c2ccccc2)cc1" .
48.2

If you can, please state the reported growth inhibition value of CN1CCC2(C1)C1CC3CC(C1)CC2C3 (stereo not given) .
1.2

If you can, please state the reported growth inhibition value of "O=c1/c(=C/c2cccc([N+](=O)[O-])c2)sc2nc3ccccc3n12" .
-9.95

Okay, next one:
If you can, please state the reported growth inhibition value of Cc1cc(Cl)ccc1OCCCC(=O)NC(Cc1c[nH]c2ccccc12)C(=O)O (stereo not given) .
3.35

----------
Reported growth inhibition by item:
test: NCI Yeast Anticancer Drug Screen. Data for the mlh1 rad18 strain (AID 175)
experimental conditions: S. cerevisiae mlh1 rad18 strain growth inhibition; at 50.0 µM; hits give high values
Compounds without any hit were thinned out: in the full panel of roughly 79,000, 15% have a hit. Active and inactive are the calls of the source. No stated cut-off is given here; in the data, active means growth inhibition above about 70%; inactive means the rest.

The cases that follow already have their growth inhibition on record.
If you can, please state the reported growth inhibition value of "CSc1ccc(C(=NO)c2ccc(SC)cc2)cc1" .
-11.7% (inactive)

If you can, please state the reported growth inhibition value of COc1ccc(/C=C/C2=CC(=O)CC(/C=C/c3ccc(OC)c(OC)c3)C2)cc1OC (stereo not given) .
43.9% (inactive)

If you can, please state the reported growth inhibition value of Cc1cn(C2CC3OP(=O)(OCc4ccccc4)OCC3O2)c(=O)[nH]c1=O (stereo not given) .
4.15% (inactive)

If you can, please state the reported growth inhibition value of "Cn1c(=S)c2[nH]c(SCCCc3ccccc3)nc2n(C)c1=O" .
12.5% (inactive)

If you can, please state the reported growth inhibition value of "Cc1ccc(C(C)C)cc1[N+](=O)[O-]" .
-21.3% (inactive)

If you can, please state the reported growth inhibition value of CC(=O)N(C(=O)CC(=O)N1N=C(C)C(N=Nc2cccc([N+](=O)[O-])c2)C1=O)c1ccc(Cl)cc1 (stereo not given) .
2% (inactive)

Continuing:
If you can, please state the reported growth inhibition value of "Cc1ccnc(NS(=O)(=O)c2ccc(N=Cc3ccccc3O)cc2)n1" .
-0.5% (inactive)

If you can, please state the reported growth inhibition value of "CCOC(=O)c1oc2cc(O)cc(O)c2c(=O)c1-c1ccc(OC)cc1" .
0.35% (inactive)

If you can, please state the reported growth inhibition value of "CCCCCCCCCCCCCCCCC(C)=O" .
-11.7% (inactive)

If you can, please state the reported growth inhibition value of "Nc1nc(-c2ccccc2)[nH]c(=O)n1" .
-33% (inactive)
